Consider the following binders; for each one, report its IL-9 secretion, CD8 T cells, at 0.001 µM.
- measured-target: T1, IL10Rα/IL2Rγ receptor (human) (UniProt Q13651)
- T1 sequence (looked up) 1: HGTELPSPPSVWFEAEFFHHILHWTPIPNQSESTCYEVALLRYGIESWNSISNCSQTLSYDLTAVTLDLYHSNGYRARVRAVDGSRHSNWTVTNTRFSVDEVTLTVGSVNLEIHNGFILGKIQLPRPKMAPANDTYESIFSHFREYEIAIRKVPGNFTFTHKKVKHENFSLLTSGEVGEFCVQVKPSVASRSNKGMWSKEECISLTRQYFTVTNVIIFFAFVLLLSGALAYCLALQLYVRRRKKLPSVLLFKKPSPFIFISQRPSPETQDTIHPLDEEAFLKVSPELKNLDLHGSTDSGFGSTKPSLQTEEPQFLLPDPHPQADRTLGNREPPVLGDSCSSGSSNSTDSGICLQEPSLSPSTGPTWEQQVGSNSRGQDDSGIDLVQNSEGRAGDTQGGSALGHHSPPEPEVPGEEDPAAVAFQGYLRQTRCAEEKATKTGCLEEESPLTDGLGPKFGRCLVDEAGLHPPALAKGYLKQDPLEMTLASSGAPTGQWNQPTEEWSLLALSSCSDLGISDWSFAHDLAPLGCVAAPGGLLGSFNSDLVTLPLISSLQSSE
- T1 sequence (looked up) 2: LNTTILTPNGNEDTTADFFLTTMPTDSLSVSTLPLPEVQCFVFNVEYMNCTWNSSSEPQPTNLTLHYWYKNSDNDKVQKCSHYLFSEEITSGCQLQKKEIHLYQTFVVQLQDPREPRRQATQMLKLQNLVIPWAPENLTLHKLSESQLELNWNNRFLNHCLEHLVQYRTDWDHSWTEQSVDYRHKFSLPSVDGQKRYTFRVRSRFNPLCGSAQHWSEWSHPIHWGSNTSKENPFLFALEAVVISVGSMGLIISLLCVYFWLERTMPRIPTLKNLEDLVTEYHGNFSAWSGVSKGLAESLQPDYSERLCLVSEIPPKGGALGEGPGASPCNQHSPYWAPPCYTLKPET
- assay-info: cell-based or functional assay
One number for each entry, in pg/mL.

hIL10Ra_VHH14 - hIL2Rg_VHH19, No linker, tag his (bispecific antibody, not shown: small tags and cut ends) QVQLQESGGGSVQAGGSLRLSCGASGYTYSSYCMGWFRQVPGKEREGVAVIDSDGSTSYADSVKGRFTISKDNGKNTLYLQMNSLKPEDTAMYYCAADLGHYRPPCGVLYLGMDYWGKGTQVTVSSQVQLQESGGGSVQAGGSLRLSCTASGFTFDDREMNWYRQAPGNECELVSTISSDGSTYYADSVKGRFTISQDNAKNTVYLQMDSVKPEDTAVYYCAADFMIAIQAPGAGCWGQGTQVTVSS	1120
hIL10Ra_VHH14 - hIL2Rg_VHH19, linker GGGS, tag his (bispecific antibody, not shown: small tags and cut ends) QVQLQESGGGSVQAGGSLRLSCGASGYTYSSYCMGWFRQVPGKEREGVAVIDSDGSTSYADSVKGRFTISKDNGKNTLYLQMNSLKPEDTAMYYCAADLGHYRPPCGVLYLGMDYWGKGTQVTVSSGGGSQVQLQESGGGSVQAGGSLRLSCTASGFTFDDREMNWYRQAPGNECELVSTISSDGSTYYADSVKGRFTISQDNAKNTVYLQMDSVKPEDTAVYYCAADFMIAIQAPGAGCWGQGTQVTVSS	1000
hIL10Ra_VHH14 - hIL2Rg_VHH19, linker GGSGGS, tag his (bispecific antibody, not shown: small tags and cut ends) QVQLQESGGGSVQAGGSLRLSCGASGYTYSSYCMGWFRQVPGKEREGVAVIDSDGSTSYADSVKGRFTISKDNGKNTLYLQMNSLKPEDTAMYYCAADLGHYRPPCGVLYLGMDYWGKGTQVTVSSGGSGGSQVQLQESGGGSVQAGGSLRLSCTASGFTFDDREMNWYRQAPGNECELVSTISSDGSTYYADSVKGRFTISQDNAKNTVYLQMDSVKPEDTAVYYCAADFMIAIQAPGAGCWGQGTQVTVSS	1010
hIL10Ra_VHH14 - hIL2Rg_VHH19, linker …, tag his (bispecific antibody, not shown: small tags and cut ends) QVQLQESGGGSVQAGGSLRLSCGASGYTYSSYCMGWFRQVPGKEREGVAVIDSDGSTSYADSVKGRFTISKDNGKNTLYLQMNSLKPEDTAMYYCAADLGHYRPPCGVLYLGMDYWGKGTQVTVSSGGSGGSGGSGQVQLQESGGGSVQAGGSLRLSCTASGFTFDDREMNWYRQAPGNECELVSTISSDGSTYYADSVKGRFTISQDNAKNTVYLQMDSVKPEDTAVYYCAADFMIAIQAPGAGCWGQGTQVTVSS	1320
hIL10Ra_VHH14 - hIL2Rg_VHH19, linker GGGS, tag Fc (bispecific antibody, not shown: a dimerising Fc or GST) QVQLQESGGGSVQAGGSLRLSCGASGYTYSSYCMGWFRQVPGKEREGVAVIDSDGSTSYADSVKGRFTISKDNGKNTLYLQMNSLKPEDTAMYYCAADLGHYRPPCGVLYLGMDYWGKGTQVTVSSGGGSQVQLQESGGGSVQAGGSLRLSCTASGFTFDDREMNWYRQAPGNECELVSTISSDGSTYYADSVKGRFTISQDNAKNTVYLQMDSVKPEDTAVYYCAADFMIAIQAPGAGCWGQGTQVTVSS	1120
hIL10Ra_VHH14 - hIL2Rg_VHH19, linker GS, tag his (bispecific antibody, not shown: small tags and cut ends) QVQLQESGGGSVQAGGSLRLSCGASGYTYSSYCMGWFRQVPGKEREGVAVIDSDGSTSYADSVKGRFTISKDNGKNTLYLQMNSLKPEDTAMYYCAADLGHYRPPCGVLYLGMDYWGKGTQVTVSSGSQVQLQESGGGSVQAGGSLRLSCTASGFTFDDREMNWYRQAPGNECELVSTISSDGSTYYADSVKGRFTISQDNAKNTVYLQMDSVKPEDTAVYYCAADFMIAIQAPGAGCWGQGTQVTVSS	998

input: For the binder hIL10Ra_VHH14 - hIL2Rg_VHH19, linker GGGSGGGS, tag his (bispecific antibody, not shown: small tags and cut ends) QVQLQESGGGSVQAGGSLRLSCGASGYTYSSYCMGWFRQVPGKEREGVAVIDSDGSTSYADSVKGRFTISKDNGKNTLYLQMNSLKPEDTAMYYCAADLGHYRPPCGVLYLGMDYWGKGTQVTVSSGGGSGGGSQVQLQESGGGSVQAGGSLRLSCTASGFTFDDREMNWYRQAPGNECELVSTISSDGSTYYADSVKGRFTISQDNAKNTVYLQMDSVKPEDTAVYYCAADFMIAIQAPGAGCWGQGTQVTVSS , give its reported IL-9 secretion, CD8 T cells, at 0.001 µM.
output: 1050

The origin of these recorded values is patent US20250163162A1.
